- method-notes: Half life in rat at 1 mg/kg, iv or 2 mg/kg, po
- Assay type: ADME, organism-based
- experimental-conditions: in vivo
measured-attribute: half-life (h)

1. C[C@H](NS(=O)(=O)c1cccc(-c2ccccc2)c1)[C@@H](Cc1ccc(Cl)cc1)c1cccc(C#N)c1 = 8.4

---

Each item that follows carries a reported IC50.
- target-system: Cannabinoid receptor 1 (Homo sapiens)
- method-notes: biochemical
measured-attribute: IC50 (nM)

1) C[C@H](NS(=O)(=O)Cc1ccccc1)[C@@H](Cc1ccc(Cl)cc1)c1cccc(C#N)c1 = 20.9
2) C[C@H](NS(=O)(=O)/C=C/c1ccccc1)[C@@H](Cc1ccc(Cl)cc1)c1cccc(C#N)c1 = 41.8
3) C[C@H](NS(=O)(=O)c1ccc(Cl)cc1Cl)[C@@H](Cc1ccc(Cl)cc1)c1cccc(C#N)c1 = 7.1
4) C[C@H](NS(=O)(=O)c1ccccc1)[C@@H](Cc1ccc(Cl)cc1)c1cccc(C#N)c1 = 9.7
5) C[C@H](NS(=O)(=O)c1c(Cl)cccc1Cl)[C@@H](Cc1ccc(Cl)cc1)c1cccc(C#N)c1 = 29.8
6) C[C@H](NS(=O)(=O)c1cc(Cl)ccc1Cl)[C@@H](Cc1ccc(Cl)cc1)c1cccc(C#N)c1 = 7.4

---

- target-system: UniProt P34972
- method-notes: Displacement of [3H]CP-55940 from human recombinant CB2 receptor expressed in CHO cells
pIC50: −log10 of the molar value.
Criterion: pIC50 meeting or surpassing 6. Met: fulfilled. Not met: not fulfilled.

1) C[C@H](NC(=O)c1ccccc1)[C@@H](Cc1ccc(Cl)cc1)c1cccc(C#N)c1 = not fulfilled
2) C[C@H](NS(=O)(=O)c1cc(Cl)ccc1Cl)[C@@H](Cc1ccc(Cl)cc1)c1cccc(C#N)c1 = fulfilled
3) C[C@H](NS(=O)(=O)c1ccc(Cl)cc1)[C@@H](Cc1ccc(Cl)cc1)c1cccc(C#N)c1 = fulfilled
4) C[C@H](NS(=O)(=O)c1cc(C(F)(F)F)cc(C(F)(F)F)c1)[C@@H](Cc1ccc(Cl)cc1)c1cccc(C#N)c1 = not fulfilled
5) C[C@H](NS(=O)(=O)c1ccc(-c2ccccc2)cc1)[C@@H](Cc1ccc(Cl)cc1)c1cccc(C#N)c1 = fulfilled

---

Each item that follows carries a reported IC50.
- target-system: Cannabinoid receptor 1 (Homo sapiens, UniProt P21554)
- Sequence (P21554 whole entry): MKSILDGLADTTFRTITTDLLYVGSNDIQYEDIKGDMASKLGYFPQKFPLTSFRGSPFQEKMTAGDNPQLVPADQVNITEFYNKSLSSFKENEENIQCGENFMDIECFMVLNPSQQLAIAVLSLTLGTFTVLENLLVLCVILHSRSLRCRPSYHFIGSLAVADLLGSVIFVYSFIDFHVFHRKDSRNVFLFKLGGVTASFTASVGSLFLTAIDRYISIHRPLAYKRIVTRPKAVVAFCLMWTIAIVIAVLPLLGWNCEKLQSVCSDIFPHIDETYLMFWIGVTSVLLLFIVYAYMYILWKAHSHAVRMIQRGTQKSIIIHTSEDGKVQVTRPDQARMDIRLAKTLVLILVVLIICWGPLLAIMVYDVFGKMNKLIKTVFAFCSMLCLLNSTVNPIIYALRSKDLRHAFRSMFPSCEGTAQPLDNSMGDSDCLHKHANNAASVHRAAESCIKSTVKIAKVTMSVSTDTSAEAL
- method-notes: biochemical
- Type: cell-based, CHO
measured-attribute: IC50 (nM)

1) C[C@H](NS(=O)(=O)Cc1cccc(Cl)c1)[C@@H](Cc1ccc(Cl)cc1)c1cccc(C#N)c1 = 53.5
2) C[C@H](NC(=O)CCc1ccccc1)[C@@H](Cc1ccc(Cl)cc1)c1cccc(C#N)c1 = 38.3
3) C[C@H](NC(=O)c1cc(Cl)cc(Cl)c1)[C@@H](Cc1ccc(Cl)cc1)c1cccc(C#N)c1 = 282
4) C[C@H](NS(=O)(=O)c1ccc(-c2ccccc2)cc1)[C@@H](Cc1ccc(Cl)cc1)c1cccc(C#N)c1 = 23
5) CCCCS(=O)(=O)N[C@@H](C)[C@@H](Cc1ccc(Cl)cc1)c1cccc(C#N)c1 = 75.2
6) C[C@H](NS(=O)(=O)CCc1ccccc1)[C@@H](Cc1ccc(Cl)cc1)c1cccc(C#N)c1 = 19.3
7) C[C@H](NS(=O)(=O)c1ccccc1Cl)[C@@H](Cc1ccc(Cl)cc1)c1cccc(C#N)c1 = 12.3
8) C[C@H](NS(=O)(=O)c1ccc(Cl)cc1)[C@@H](Cc1ccc(Cl)cc1)c1cccc(C#N)c1 = 21.7
9) C[C@H](NC(=O)c1ccccc1)[C@@H](Cc1ccc(Cl)cc1)c1cccc(C#N)c1 = 845
10) C[C@H](NS(=O)(=O)Cc1ccccc1Cl)[C@@H](Cc1ccc(Cl)cc1)c1cccc(C#N)c1 = 16
11) C[C@H](NS(=O)(=O)c1ccc2ccccc2c1)[C@@H](Cc1ccc(Cl)cc1)c1cccc(C#N)c1 = 15
12) C[C@H](NS(=O)(=O)c1cc(Cl)cc(Cl)c1)[C@@H](Cc1ccc(Cl)cc1)c1cccc(C#N)c1 = 11.4
13) C[C@H](NS(=O)(=O)c1cc(Cl)c(Cl)cc1Cl)[C@@H](Cc1ccc(Cl)cc1)c1cccc(C#N)c1 = 16
14) C[C@H](NC(=O)Cc1ccccc1)[C@@H](Cc1ccc(Cl)cc1)c1cccc(C#N)c1 = 44.1
15) C[C@H](NS(=O)(=O)c1cccc(Cl)c1)[C@@H](Cc1ccc(Cl)cc1)c1cccc(C#N)c1 = 13.9
16) C[C@H](NC(=O)c1c(Cl)cccc1Cl)[C@@H](Cc1ccc(Cl)cc1)c1cccc(C#N)c1 = 37.2

---

- method-notes: Plasma clearance in rat at 1 mg/kg, iv or 2 mg/kg, po
- Assay type: ADME, organism-based
measured-attribute: clearance (mL/min/kg)

1) C[C@H](NS(=O)(=O)c1cccc(-c2ccccc2)c1)[C@@H](Cc1ccc(Cl)cc1)c1cccc(C#N)c1 = 10.6

---

- method-notes: Brain concentration in rat at 1 mg/kg, iv at 1 h
- Assay type: ADME, organism-based
- Design: dose 1 mg/kg, route intravenous
- experimental-conditions: read-out: Activity
measured-attribute: concentration at 1 h

1. C[C@H](NS(=O)(=O)c1cccc(-c2ccccc2)c1)[C@@H](Cc1ccc(Cl)cc1)c1cccc(C#N)c1 = 92 nM

---

- target-system: Cannabinoid receptor 2 (Homo sapiens, UniProt P34972)
- Sequence (P34972 whole entry): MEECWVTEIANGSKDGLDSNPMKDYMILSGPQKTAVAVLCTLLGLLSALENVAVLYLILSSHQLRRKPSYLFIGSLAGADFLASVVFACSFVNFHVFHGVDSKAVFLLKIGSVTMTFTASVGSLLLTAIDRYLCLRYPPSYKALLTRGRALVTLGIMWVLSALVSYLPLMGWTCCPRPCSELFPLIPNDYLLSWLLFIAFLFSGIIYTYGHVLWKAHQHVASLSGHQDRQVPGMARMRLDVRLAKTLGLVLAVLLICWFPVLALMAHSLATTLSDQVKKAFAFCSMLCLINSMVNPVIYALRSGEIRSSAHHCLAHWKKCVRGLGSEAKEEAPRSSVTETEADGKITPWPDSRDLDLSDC
- method-notes: Displacement of [3H]CP-55940 from human recombinant CB2 receptor expressed in CHO cells
pIC50: −log10 of the molar value.
measured-attribute: pIC50

1. C[C@H](NS(=O)(=O)CCc1ccccc1)[C@@H](Cc1ccc(Cl)cc1)c1cccc(C#N)c1 = 6.04
2. C[C@H](NS(=O)(=O)c1cc(Cl)cc(Cl)c1)[C@@H](Cc1ccc(Cl)cc1)c1cccc(C#N)c1 = 6.00
3. C[C@H](NS(=O)(=O)c1ccc(Cl)cc1Cl)[C@@H](Cc1ccc(Cl)cc1)c1cccc(C#N)c1 = 6.52
4. C[C@H](NS(=O)(=O)c1cccc(Cl)c1Cl)[C@@H](Cc1ccc(Cl)cc1)c1cccc(C#N)c1 = 6.70
5. C[C@H](NS(=O)(=O)c1cccc(Cl)c1)[C@@H](Cc1ccc(Cl)cc1)c1cccc(C#N)c1 = 6.09
6. C[C@H](NS(=O)(=O)Cc1ccccc1Cl)[C@@H](Cc1ccc(Cl)cc1)c1cccc(C#N)c1 = 5.72
7. C[C@H](NS(=O)(=O)c1cc(Cl)c(Cl)cc1Cl)[C@@H](Cc1ccc(Cl)cc1)c1cccc(C#N)c1 = 6.21
8. CCCCS(=O)(=O)N[C@@H](C)[C@@H](Cc1ccc(Cl)cc1)c1cccc(C#N)c1 = 5.84
9. C[C@H](NS(=O)(=O)c1cc(F)cc(F)c1)[C@@H](Cc1ccc(Cl)cc1)c1cccc(C#N)c1 = 5.97
10. C[C@H](NC(=O)CCc1ccccc1)[C@@H](Cc1ccc(Cl)cc1)c1cccc(C#N)c1 = 5.86
11. C[C@H](NS(=O)(=O)c1cccc(-c2ccccc2)c1)[C@@H](Cc1ccc(Cl)cc1)c1cccc(C#N)c1 = 6.40
12. C[C@H](NS(=O)(=O)c1c(Cl)cccc1Cl)[C@@H](Cc1ccc(Cl)cc1)c1cccc(C#N)c1 = 6.55
13. C[C@H](NC(=O)c1cc(Cl)cc(Cl)c1)[C@@H](Cc1ccc(Cl)cc1)c1cccc(C#N)c1 = 6.74

---

- target-system: Cannabinoid receptor 1 (Rattus norvegicus, UniProt P20272)
- Sequence (P20272 whole entry): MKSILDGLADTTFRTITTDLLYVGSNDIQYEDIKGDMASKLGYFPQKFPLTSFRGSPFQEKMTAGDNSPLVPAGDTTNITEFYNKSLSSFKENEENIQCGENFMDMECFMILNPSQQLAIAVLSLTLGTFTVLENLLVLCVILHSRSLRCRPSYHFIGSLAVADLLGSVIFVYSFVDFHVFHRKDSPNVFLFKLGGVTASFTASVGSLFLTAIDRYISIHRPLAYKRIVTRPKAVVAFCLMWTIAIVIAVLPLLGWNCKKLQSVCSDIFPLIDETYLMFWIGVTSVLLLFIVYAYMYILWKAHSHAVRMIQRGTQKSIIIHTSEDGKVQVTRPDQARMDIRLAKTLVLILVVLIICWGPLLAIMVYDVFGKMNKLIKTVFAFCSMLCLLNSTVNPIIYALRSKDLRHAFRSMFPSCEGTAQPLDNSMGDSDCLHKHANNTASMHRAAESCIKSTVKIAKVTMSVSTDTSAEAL
measured-attribute: IC50 (nM)

1. C[C@H](NS(=O)(=O)c1cccc(-c2ccccc2)c1)[C@@H](Cc1ccc(Cl)cc1)c1cccc(C#N)c1 = 2.3

The reported measurements were obtained from ChEMBL document CHEMBL1144613.
